Sourced from ChEMBL document CHEMBL3407376

- TARGET: UniProt Q9N6S8
- Sequence (Q9N6S8 whole entry): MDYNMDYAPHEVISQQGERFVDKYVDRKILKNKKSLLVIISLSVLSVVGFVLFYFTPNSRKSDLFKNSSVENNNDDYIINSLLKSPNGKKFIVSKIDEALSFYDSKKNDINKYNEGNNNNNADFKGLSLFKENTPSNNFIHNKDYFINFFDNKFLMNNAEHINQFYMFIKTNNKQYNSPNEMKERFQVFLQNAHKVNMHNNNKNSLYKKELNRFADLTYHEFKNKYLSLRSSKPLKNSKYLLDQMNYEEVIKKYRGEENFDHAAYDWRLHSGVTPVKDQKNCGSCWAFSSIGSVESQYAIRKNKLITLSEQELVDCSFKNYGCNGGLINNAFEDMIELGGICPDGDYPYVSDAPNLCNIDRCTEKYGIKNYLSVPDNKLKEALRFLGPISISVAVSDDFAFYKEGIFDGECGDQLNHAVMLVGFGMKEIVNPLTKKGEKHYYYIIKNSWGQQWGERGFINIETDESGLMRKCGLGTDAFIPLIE
- TEST DESCRIPTION: Inhibition of Plasmodium falciparum recombinant falcipain-2 using ZFR-AMC as substrate after 30 mins by fluorometric assay
Listed compounds paired with reported pKi
The scale used: pKi is minus the common logarithm of the concentration in molar units.

Look over these answered cases.
>>> measured_result("CC(C)C[C@H](NC(=O)[C@H](CC(C)C)NC(=O)N1CCCCC1)C(=O)N[C@@H](Cc1ccccc1)C(=O)NNc1ccccc1")
6.10
>>> measured_result("CC(C)C[C@H](NC(=O)[C@H](CC(C)C)NC(=O)N1CCCCC1)C(=O)N[C@H](C(=O)N1CCN=C1COc1ccc(F)cc1)c1ccccc1")
6.10

As a next step, examine the compound that follows.
Which pKi is listed for CC(C)C[C@H](NC(=O)[C@H](CC(C)C)NC(=O)N1CCOCC1)C(=O)N[C@H](C(=O)N1CCN=C1COc1ccc(F)cc1)c1ccccc1 ? 5.15
